Measured melting point of individual entries
ASSAY METRIC: melting point

| COMPOUND | ASSAY METRIC | RESULT |
| --- | --- | --- |
| O=C1C2C3C=CC(C3)C2C(=O)N1c1cccc(Br)c1 (configuration not stated) | melting point | 192 to 194 °C |
| O=S(=O)(NC1CCNCC1)c1ccccc1 | melting point | 157 to 159 °C |
| O=C1C(Br)CCN1c1ccc(C(F)(F)F)cc1 (configuration not stated) | melting point | 63 to 65 °C |
| O=C(Nc1cccc(O)c1)c1ccccc1 | melting point | 171 to 173 °C |
| [N-]=[N+]=NCCN1C(=O)C(=O)c2ccccc21 | melting point | 71 to 73 °C |
| CCOc1oc(-c2ccccc2)nc1C(=O)O | melting point | 147 to 149 °C |
| Cc1cc(F)cc(C(=O)O)c1[N+](=O)[O-] | melting point | 161 to 163 °C |

* * *

# melting point annotations
ASSAY METRIC: melting point

| COMPOUND | RESULT |
| --- | --- |
| Cc1cccc(Nc2nnc(S)s2)c1C | 195 to 197 °C |
| C#CCN1CCC(NC2CCOCC2)CC1 | 74 to 76 °C |
| COC(=O)c1c(C(=O)OC)c(-c2cccc(N)c2)n2c1CCC2 | 166 to 168 °C |
| Cc1occc1-c1nnc(S)n1-c1ccccc1 | 234 to 236 °C |
| C=CC(=O)Nc1ccc(N(C)C(C)C)c(F)c1 | 81 to 83 °C |
| Cc1nnc2ccc(Cl)nn12 | 103 to 105 °C |
| Nc1nnc(Cc2ccc3ccccc3c2)o1 | 219 to 221 °C |
| N#CCCOc1ccccc1 | 58 to 61 °C |
| O=Cc1[nH]nnc1-c1ccccc1 | 169 to 171 °C |
| CNC(=O)CC(N)=NO | 119 to 121 °C |
| COC(=O)c1ccc(N)c([N+](=O)[O-])c1 | 201 to 203 °C |
| Cc1ccc(S(=O)(=O)OC2CCS(=O)(=O)C2)cc1 (stereo not drawn) | 80 to 82 °C |
| O=C(O)c1cc[nH]c1 | 129 to 131 °C |
| CCc1cc(=O)[nH]c(-c2ccc(Cl)nc2)n1 | 208 to 210 °C |
| NS(=O)(=O)c1cc2c(cc1Br)CCCC(=O)N2 | 249 to 251 °C |
| Cc1nc(-c2c(C)c(C)nn(C)c2=O)sc1C(=O)O | 239 to 241 °C |
| CCOC(=O)c1c(NC(=O)CCl)sc(-c2ccccc2)c1C | 106 to 108 °C |
| Nc1cc2c(cc1Br)NC(=O)CO2 | 209 to 211 °C |
| COC(=O)c1ccc2c(=O)[nH]c(C)nc2c1 | 274 to 276 °C |
| O=C(O)CC1=NN(c2ccc(Cl)nn2)C(=O)C1 | 183 to 185 °C |
| CN1CCN(c2ccc(C(=O)O)cc2[N+](=O)[O-])CC1 | 160 to 162 °C |
| O=C(O)/C(=C\c1ccccc1)c1cccs1 | 169 to 171 °C |
| Nc1nc(-c2cc(Cl)sc2Cl)cs1 | 144 to 146 °C |
